- SYSTEM: Aβ(1-40) peptide (Homo sapiens, UniProt P05067)
- Construct: Soluble Aβ(1-40) peptide (Bachem, Torrance, Calif.); purchased Bachem, Torrance, Calif
- Sequence (P05067 672-711): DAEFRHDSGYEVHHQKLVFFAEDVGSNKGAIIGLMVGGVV
- ASSAY EXPLANATION: BASSR (Beta-Amyloid Self-Seeding Radioassay), inhibitors of self-seeded amyloid fibril growth
- Assay type: biochemical
- PARTICULARS: 30 μM soluble Aβ(1-40) + 125I-labeled Aβ(1-40), pH 7.5, 37° C. for 3 to 5 hours, filtration; read-out: BASSR (IC50 = μM)
- Protocol: 1. BASSR (Beta-Amyloid Self-Seeding Radioassay) An assay for inhibitors of self-seeded amyloid fibril growth Assay Buffer—50 mM sodium phosphate, pH 7.5, 100 mM NaCl, 0.02% NaN3, 1 M urea (filter and store at 4° C.) […] 6) The aluminum film is removed and 200 μL/well of ice cold assay buffer with urea is added. […] The radioactivity of the filters is determined by using standard methods well-known to those skilled in the art.
PROPERTY: IC50

Recorded IC50, per entry:
> print(dat)
                                   compound  value.observed
1   O=C1OC(c2ccccc2)=N/C1=C\c1ccc2c(c1)OCO2           21 µM
2  CCCN(CCC)c1ccc(/C=C2/N=C(c3ccccc3)OC2=O)cc1        > 100 µM
3   COc1ccc(/C=C2\N=C(c3ccccc3I)OC2=O)cc1OC        > 100 µM

Q: Using known records, supply IC50 for O=C1OC(c2ccc([N+](=O)[O-])cc2)=N/C1=C\c1ccc(Cl)c(Cl)c1
Result: 70 µM

Q: Read the entry COc1ccc(C2=N/C(=C\c3ccccc3)C(=O)O2)cc1 and write its reported IC50.
Result: 16 µM

---

- SYSTEM: Aβ(1-40) peptide (Homo sapiens)
- Construct: Soluble Aβ(1-40) peptide (Bachem, Torrance, Calif.); purchased Bachem, Torrance, Calif
- ASSAY EXPLANATION: BASSR (Beta-Amyloid Self-Seeding Radioassay), inhibitors of self-seeded amyloid fibril growth
- Type: biochemical
- PARTICULARS: BASSR (IC50 = μM), 30 μM soluble Aβ(1-40) + 125I-labeled Aβ(1-40), pH 7.5, 37° C. for 3 to 5 hours, filtration
PROPERTY: IC50

Q: For the molecule COc1c(/C=C2\N=C(c3ccccc3)OC2=O)cc([N+](=O)[O-])cc1[N+](=O)[O-] , give its measured IC50 value.
Result: > 100 µM

---

- SYSTEM: Aβ (1-40) (Homo sapiens)
- Construct: Soluble Aβ (1-40)—2.2 mg/mL in deionized H2O
- ASSAY EXPLANATION: BASST (Beta-Amyloid Self-Seeding, ThioflavinT), inhibitors of self-seeded amyloid fibril growth
- Format: biochemical
- PARTICULARS: 30 μM soluble Aβ(1-40), pH 7.5, 37° C. for 3 to 5 hours, thioflavin T fluorescence; read-out: BASST (IC50 = μM)
PROPERTY: IC50 (µM)

Consider the worked cases shown below.
> print(dat)
                                   compound  property  value.observed
1  O=C1OC(c2ccc([N+](=O)[O-])cc2)=N/C1=C\c1ccc(Cl)c(Cl)c1 [compound 13]      IC50              90
2  COc1cccc(/C=C2\N=C(c3ccc([N+](=O)[O-])cc3)OC2=O)c1OC [compound 9]      IC50              12
3  COc1cccc(/C=C2\N=C(c3ccccc3)OC2=O)c1 [compound 8]      IC50               7

[1] CCCN(CCC)c1ccc(/C=C2/N=C(c3ccccc3)OC2=O)cc1 [compound 7]
[2] COc1ccc(/C=C2\N=C(c3ccccc3I)OC2=O)cc1OC [compound 10]
[3] O=C1OC(c2ccccc2)=N/C1=C\c1ccc(Cl)c(Cl)c1 [compound 11]
[4] CN(C)c1ccc(/C=C2\N=C(c3ccccc3)OC2=O)c2ccccc12 [compound 6]
Q: Reorder: IC50, max to min. Present the labels in the sequence the task asks for.
Result: 3, 2, 1, 4
(3: 30 µM, 2: 15 µM, 1: 8 µM, 4: 2.6 µM)

---

- SYSTEM: Aβ (1-40) (Homo sapiens)
- Construct: Soluble Aβ (1-40)—2.2 mg/mL in deionized H2O
- ASSAY EXPLANATION: BASST (Beta-Amyloid Self-Seeding, ThioflavinT), inhibitors of self-seeded amyloid fibril growth
- Format: biochemical
- PARTICULARS: 30 μM soluble Aβ(1-40), pH 7.5, 37° C. for 3 to 5 hours, thioflavin T fluorescence; read-out: BASST (IC50 = μM)
PROPERTY: IC50

> print(dat)
                                   compound  value.observed
1    COc1ccc(/C=C2\N=C(c3ccccc3)OC2=O)cc1OC        > 100 µM
2  O=C1OC(c2ccccc2)=N/C1=C\c1ccc(F)c(C(F)(F)F)c1        > 100 µM

Could you now look at the following compound, please?
Q: Using the record for O=C1OC(c2ccccc2)=N/C1=C\c1ccccc1 , state its measured IC50.
Result: > 100 µM
